Biological target: Alpha-1A adrenergic receptor (Homo sapiens)
Details: Compound concentration 10 µM
Description: PDSP Primary Binding target: ADRA1A - Compounds are tested at 10 uM concentration, plate are incubated at room temperature in the dark for 90 minutes. Reaction are stopped by vacuum filtration onto 0.3% polyethyleneimine soaked filter mats using Filtermate harvester. Scintilation cocktail is then melted onto microwave-dried filters on a hot plate and the radio activity is counted in Microbia counter.
Output 1 (yes) for inhibition not less than 20%; output 0 (no) otherwise.

[[record]]
compound = "COc1ccccc1CN[C@H]1C2CCN(CC2)[C@H]1C(c1ccccc1)c1ccccc1"
discrete_label = "0 (no)"

[[record]]
compound = "O=C(Nc1ccc(Cl)cc1)Nc1cccc(-c2cccc(N3CCCC3)n2)c1"
discrete_label = "0 (no)"

[[record]]
compound = "Cc1nn(C)c(C)c1-c1cccc2c1CC[C@H](N(C)C)C2"
discrete_label = "0 (no)"

[[record]]
compound = "Cc1csc2c(N[C@@H](C)CN3CCN(S(=O)(=O)c4ccc(Cl)c(Cl)c4)CC3)ncnc12"
discrete_label = "0 (no)"

[[record]]
compound = "Cc1c(P(=S)(c2ccccc2)c2ccccc2)n2ccccc2[n+]1C/C=C/c1ccccc1"
discrete_label = "1 (yes)"

[[record]]
compound = "Cc1c(OCc2cccc(-c3ccc(C(=O)O)cc3)c2)cc2c(c1C)C(=O)C(C1CCCC1)C2 (stereo unspecified)"
discrete_label = "1 (yes)"


* * *

Target: D(4) dopamine receptor (Homo sapiens) (UniProt P21917)
Sequence (P21917 whole entry): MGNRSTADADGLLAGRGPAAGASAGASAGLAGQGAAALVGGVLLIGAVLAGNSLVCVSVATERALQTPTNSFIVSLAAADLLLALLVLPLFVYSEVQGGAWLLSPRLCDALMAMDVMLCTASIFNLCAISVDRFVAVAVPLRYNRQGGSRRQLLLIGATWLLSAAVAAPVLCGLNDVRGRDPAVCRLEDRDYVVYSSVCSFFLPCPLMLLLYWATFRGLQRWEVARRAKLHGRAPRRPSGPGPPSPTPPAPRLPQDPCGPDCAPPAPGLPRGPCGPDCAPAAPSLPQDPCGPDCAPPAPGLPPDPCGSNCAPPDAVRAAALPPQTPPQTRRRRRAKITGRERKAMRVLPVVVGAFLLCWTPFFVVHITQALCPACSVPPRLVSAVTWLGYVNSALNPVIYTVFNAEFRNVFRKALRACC
Settings: Compound concentration 10 µM; call rule not given here
Labels: active, inactive

[[record]]
compound = "Cc1ccccc1C(=O)Nc1ccc(C(=O)N2CCCC(O)c3cc(Cl)ccc32)c(C)c1 (stereo not drawn)"
discrete_label = "inactive"

[[record]]
compound = "COc1ccc(OC(F)(F)F)cc1CN[C@H]1CCCN[C@H]1c1ccccc1"
discrete_label = "inactive"

[[record]]
compound = "Cc1cc(C)c(N)c(C#Cc2cccc(F)c2)n1"
discrete_label = "inactive"

[[record]]
compound = "CN[C@@H]1CCc2[nH]c3ccc(C(N)=O)cc3c2C1"
discrete_label = "active"

[[record]]
compound = "Cc1csc2c(N[C@@H](C)CN3CCN(S(=O)(=O)c4ccc(Cl)c(Cl)c4)CC3)ncnc12"
discrete_label = "inactive"

[[record]]
compound = "CC1(C)SSC(C)(C)[C@@H](NC(=O)[C@@H](N)Cc2ccc(O)cc2)C(=O)NCC(=O)N[C@@H](Cc2ccccc2)C(=O)N[C@H]1C(=O)O"
discrete_label = "inactive"

[[record]]
compound = "CCCSc1nc(N[C@@H]2C[C@H]2c2ccc(F)c(F)c2)c2nnn([C@@H]3C[C@H](OCCO)[C@@H](O)[C@H]3O)c2n1"
discrete_label = "inactive"

[[record]]
compound = "COc1ccc(CNC(=O)c2cc(-c3cncc(Cl)c3)cnc2-c2ccccn2)nc1OC"
discrete_label = "inactive"


* * *

Target: Alpha-2B adrenergic receptor (Homo sapiens) (UniProt P18089)
Sequence (P18089 whole entry): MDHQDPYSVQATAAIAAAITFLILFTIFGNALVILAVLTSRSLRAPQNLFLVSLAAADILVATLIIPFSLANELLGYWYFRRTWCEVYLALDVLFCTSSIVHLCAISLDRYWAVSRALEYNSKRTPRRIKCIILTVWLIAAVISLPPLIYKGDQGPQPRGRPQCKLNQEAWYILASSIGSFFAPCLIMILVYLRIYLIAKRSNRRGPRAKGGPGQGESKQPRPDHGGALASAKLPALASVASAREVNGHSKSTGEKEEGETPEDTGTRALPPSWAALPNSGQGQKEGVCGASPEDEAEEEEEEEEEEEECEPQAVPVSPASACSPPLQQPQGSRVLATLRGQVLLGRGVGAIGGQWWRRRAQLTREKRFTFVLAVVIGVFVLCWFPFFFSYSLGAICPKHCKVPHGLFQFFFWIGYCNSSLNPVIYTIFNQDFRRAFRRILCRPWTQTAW
Conditions: Compound concentration 10 µM
Description: PDSP Primary Binding target: ADRA2B - Compounds are tested at 10 uM concentration, plate are incubated at room temperature in the dark for 90 minutes. Reaction are stopped by vacuum filtration onto 0.3% polyethyleneimine soaked filter mats using Filtermate harvester. Scintilation cocktail is then melted onto microwave-dried filters on a hot plate and the radio activity is counted in Microbia counter.
Assign class by inhibition: not lower than 20% means Condition met; lower than 20% means Condition not met.

[[record]]
smiles_input = "CN1CCC(C(=O)c2cccc(NC(=O)c3c(F)cc(F)cc3F)n2)CC1"
system_name = "Alpha-2B adrenergic receptor (Homo sapiens) (UniProt P18089)"
discrete_label = "Condition met"

[[record]]
smiles_input = "N=C(N)SCCc1c[nH]cn1"
system_name = "Alpha-2B adrenergic receptor (Homo sapiens) (UniProt P18089)"
discrete_label = "Condition not met"

[[record]]
smiles_input = "C[N+]1(C)[C@@H]2C[C@@H](OC(=O)C(O)(c3cccs3)c3cccs3)C[C@H]1[C@@H]1O[C@@H]12"
system_name = "Alpha-2B adrenergic receptor (Homo sapiens) (UniProt P18089)"
discrete_label = "Condition not met"

[[record]]
smiles_input = "CCc1cc2c(c(CC)n1)CCC(=O)N2Cc1ccc(-c2ccccc2-c2nnn[nH]2)cc1"
system_name = "Alpha-2B adrenergic receptor (Homo sapiens) (UniProt P18089)"
discrete_label = "Condition not met"

[[record]]
smiles_input = "COc1cc(-n2cnc3cc(-c4ccc(Cl)cc4)sc3c2=O)ccc1OCCN1CCCC1"
system_name = "Alpha-2B adrenergic receptor (Homo sapiens) (UniProt P18089)"
discrete_label = "Condition met"


* * *

Target: Muscarinic acetylcholine receptor M3 (Homo sapiens) (UniProt P20309)
Sequence (P20309 whole entry, looked up): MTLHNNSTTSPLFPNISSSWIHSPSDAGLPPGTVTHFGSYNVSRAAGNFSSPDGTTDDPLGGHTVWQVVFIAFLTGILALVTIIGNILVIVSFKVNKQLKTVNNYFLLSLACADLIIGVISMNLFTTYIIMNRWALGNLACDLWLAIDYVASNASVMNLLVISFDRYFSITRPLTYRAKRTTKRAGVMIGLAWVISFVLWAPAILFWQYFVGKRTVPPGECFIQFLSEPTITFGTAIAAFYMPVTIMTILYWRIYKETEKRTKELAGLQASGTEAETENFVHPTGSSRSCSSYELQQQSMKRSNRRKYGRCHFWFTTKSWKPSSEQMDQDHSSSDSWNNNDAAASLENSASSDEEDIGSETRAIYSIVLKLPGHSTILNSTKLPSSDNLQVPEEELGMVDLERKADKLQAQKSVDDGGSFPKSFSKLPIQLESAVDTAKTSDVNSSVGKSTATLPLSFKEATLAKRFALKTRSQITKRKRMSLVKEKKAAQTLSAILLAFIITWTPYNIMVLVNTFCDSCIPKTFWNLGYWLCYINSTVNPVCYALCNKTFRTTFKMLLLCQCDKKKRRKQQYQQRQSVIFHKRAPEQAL
Conditions: Compound concentration 10 µM; call rule not given here
Outcomes: active, inactive

[[record]]
smiles_input = "CCCn1c(=O)c2[nH]c(-c3cnn(Cc4cccc(C(F)(F)F)c4)c3)nc2n(CC)c1=O"
discrete_label = "inactive"

[[record]]
smiles_input = "CCc1ccc(OCc2ccccc2C(=O)Nc2ccc3nc(C)cc(N)c3c2)cc1"
discrete_label = "inactive"

[[record]]
smiles_input = "COc1ccccc1N1CCN(CCCCNC(=O)c2ccc3ccccc3c2)CC1"
discrete_label = "inactive"

[[record]]
smiles_input = "CC1(C)SSC(C)(C)[C@@H](NC(=O)[C@@H](N)Cc2ccc(O)cc2)C(=O)NCC(=O)N[C@@H](Cc2ccccc2)C(=O)N[C@H]1C(=O)O"
discrete_label = "inactive"

[[record]]
smiles_input = "S=C(NCCCc1c[nH]cn1)NCCCN(Cc1ccc(Cl)c(Cl)c1)c1ccc(Br)cn1"
discrete_label = "inactive"

[[record]]
smiles_input = "O=C(O)C1CN(Cc2ccc(OCc3ccc(Cl)c(Cl)c3)cc2)C1"
discrete_label = "inactive"

[[record]]
smiles_input = "Nc1nc2c(c(N3CCNCC3)n1)CCC1=C2[C@@H]2CCCC[C@@H]2O1"
discrete_label = "inactive"

[[record]]
smiles_input = "FC(F)(F)c1cccc(-c2noc(-c3cc(-c4ccccc4)c(C(F)(F)F)s3)n2)c1"
discrete_label = "inactive"

[[record]]
smiles_input = "C[C@@H](N)Cc1c[nH]cn1"
discrete_label = "inactive"

[[record]]
smiles_input = "CN(C)C(=O)N[C@H]1CC[C@H](CCN2CCN(c3cccc(Cl)c3Cl)CC2)CC1"
discrete_label = "inactive"

[[record]]
smiles_input = "NC(=O)[C@@H]1CCCN1C(=O)[C@H](Cc1c[nH]cn1)NC(=O)[C@@H]1CCC(=O)N1"
discrete_label = "inactive"

[[record]]
smiles_input = "CN1CCC(C(=O)c2cccc(NC(=O)c3c(F)cc(F)cc3F)n2)CC1"
discrete_label = "inactive"

[[record]]
smiles_input = "CCCCCNC(=O)NS(=O)(=O)c1cc([N+](=O)[O-])ccc1NC1CCCCC1"
discrete_label = "inactive"

[[record]]
smiles_input = "Clc1cccc(COc2cncc(N3CCNCC3)n2)c1"
discrete_label = "active"

[[record]]
smiles_input = "CN1CC(=O)N=C1NC(=O)Nc1cccc(Cl)c1"
discrete_label = "inactive"

[[record]]
smiles_input = "Cc1nc(C(=O)N2CCC[C@H]2Cc2nnc(-c3ccccc3)o2)c(-c2ccccc2F)s1"
discrete_label = "inactive"

[[record]]
smiles_input = "O=C(O)c1cc(-c2ccc(C3CCNCC3)cc2)c2ccc(-c3ccc(C(F)(F)F)cc3)cc2c1"
discrete_label = "inactive"

[[record]]
smiles_input = "O=C(O)CC/C=C\\C[C@@H]1CO[C@H](c2ccccc2Cl)O[C@@H]1c1ccccc1O"
discrete_label = "inactive"

[[record]]
smiles_input = "O=C(O)C1CN(Cc2ccc(-c3nc4cc(Cc5ccccc5F)ccc4s3)c(F)c2)C1"
discrete_label = "inactive"

[[record]]
smiles_input = "Cc1nc(C#Cc2ccnc(Cl)c2)c(C)n1-c1ccc(OC(F)(F)F)cc1"
discrete_label = "inactive"

[[record]]
smiles_input = "Cc1nn(C)c(C)c1-c1cccc2c1CC[C@H](N(C)C)C2"
discrete_label = "inactive"

[[record]]
smiles_input = "COc1ccc(OC(F)(F)F)cc1CN[C@H]1CCCN[C@H]1c1ccccc1"
discrete_label = "inactive"

[[record]]
smiles_input = "COC(=O)C1=C(C)NC(C)=C(C(=O)OCCCN2CCC(c3ccccc3)(c3ccccc3)CC2)[C@H]1c1cccc([N+](=O)[O-])c1"
discrete_label = "active"

[[record]]
smiles_input = "COc1ccccc1CN[C@H]1C2CCN(CC2)[C@H]1C(c1ccccc1)c1ccccc1"
discrete_label = "inactive"

[[record]]
smiles_input = "Cc1nnn(-c2ccc(-c3ccc(C4(C(=O)O)CC4)cc3)cc2)c1NC(=O)O[C@H](C)c1ccccc1"
discrete_label = "inactive"

[[record]]
smiles_input = "c1cc(CN2CCCNCCNCCCNCC2)ccc1CN1CCCNCCNCCCNCC1"
discrete_label = "inactive"

[[record]]
smiles_input = "NCCc1cn(S(=O)(=O)c2c(Cl)nc3sccn23)c2ccccc12"
discrete_label = "inactive"

[[record]]
smiles_input = "CCCCCCCCCCCCCCCCOC[C@H](COP(=O)([O-])OCC[N+](C)(C)C)OC(C)=O"
discrete_label = "inactive"

[[record]]
smiles_input = "C[N+]1(C)[C@@H]2C[C@@H](OC(=O)C(O)(c3cccs3)c3cccs3)C[C@H]1[C@@H]1O[C@@H]12"
discrete_label = "active"

[[record]]
smiles_input = "Cc1cc(C)cc(-c2cnc3cc(Cl)c(-c4cccc(O)c4)cc3c2OCCCN)c1"
discrete_label = "active"

[[record]]
smiles_input = "CCCCN1CCC(COC(=O)c2cc(Cl)c(N)c3c2OCCO3)CC1"
discrete_label = "inactive"


* * *

Target: 5-hydroxytryptamine receptor 6 (Homo sapiens) (UniProt P50406)
Sequence (P50406 whole entry): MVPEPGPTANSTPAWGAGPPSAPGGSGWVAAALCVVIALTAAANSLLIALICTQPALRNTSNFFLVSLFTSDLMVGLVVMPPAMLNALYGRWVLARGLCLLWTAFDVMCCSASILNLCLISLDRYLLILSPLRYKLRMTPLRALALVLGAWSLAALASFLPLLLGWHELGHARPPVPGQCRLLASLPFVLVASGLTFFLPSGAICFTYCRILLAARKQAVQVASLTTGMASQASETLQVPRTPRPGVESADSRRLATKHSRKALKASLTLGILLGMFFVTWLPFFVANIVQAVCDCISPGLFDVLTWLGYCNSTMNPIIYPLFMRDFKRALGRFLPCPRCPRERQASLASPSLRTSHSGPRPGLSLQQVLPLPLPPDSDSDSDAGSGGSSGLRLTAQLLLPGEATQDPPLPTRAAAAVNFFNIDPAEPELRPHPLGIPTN
Conditions: Compound concentration 10 µM
Description: PDSP Primary Binding target: HTR6 - Compounds are tested at 10 uM concentration, plate are incubated at room temperature in the dark for 90 minutes. Reaction are stopped by vacuum filtration onto 0.3% polyethyleneimine soaked filter mats using Filtermate harvester. Scintilation cocktail is then melted onto microwave-dried filters on a hot plate and the radio activity is counted in Microbia counter.
Recorded inhibition by entry
OBSERVED_PROPERTY: inhibition (%)

[[record]]
molecule = "C[C@@H](N)Cc1c[nH]cn1"
observed_property = "inhibition"
experimental_value = 2.58

[[record]]
molecule = "Cc1cc([C@@H](C)Nc2cccc(-c3cc(C)c(C(=O)N[C@@H](C)C(=O)O)c(C)c3)c2)ccc1Cl"
observed_property = "inhibition"
experimental_value = -2.64

[[record]]
molecule = "CCCCc1nc(Cl)c(CO)n1Cc1ccc(-c2ccccc2-c2nnn[nH]2)cc1"
observed_property = "inhibition"
experimental_value = 17.6

[[record]]
molecule = "CCc1nn(CCCN2CCN(c3cccc(Cl)c3)CC2)c(=O)n1CCOc1ccccc1"
observed_property = "inhibition"
experimental_value = 74.7

[[record]]
molecule = "O=C(O)C1CN(Cc2ccc(-c3nc4cc(Cc5ccccc5F)ccc4s3)c(F)c2)C1"
observed_property = "inhibition"
experimental_value = 8.45

[[record]]
molecule = "NC(=O)[C@@H]1CCCN1C(=O)[C@H](Cc1c[nH]cn1)NC(=O)[C@@H]1CCC(=O)N1"
observed_property = "inhibition"
experimental_value = 10.6

[[record]]
molecule = "COc1ccnc(N2CCC3(CCCN(Cc4c[nH]c5ccccc45)C3=O)CC2)n1"
observed_property = "inhibition"
experimental_value = 19.4

[[record]]
molecule = "COc1cccc([C@@H](C)NCCCc2ccccc2Cl)c1"
observed_property = "inhibition"
experimental_value = 84.3

[[record]]
molecule = "O=C(O)c1cc(-c2ccc(C3CCNCC3)cc2)c2ccc(-c3ccc(C(F)(F)F)cc3)cc2c1"
observed_property = "inhibition"
experimental_value = 11.3

[[record]]
molecule = "COc1cc(-n2cnc3cc(-c4ccc(Cl)cc4)sc3c2=O)ccc1OCCN1CCCC1"
observed_property = "inhibition"
experimental_value = -7.71

[[record]]
molecule = "CC(C)NC(=O)c1ccc(C#Cc2ccncc2)cn1"
observed_property = "inhibition"
experimental_value = -2.79

[[record]]
molecule = "CCCCCNC(=O)NS(=O)(=O)c1cc([N+](=O)[O-])ccc1NC1CCCCC1"
observed_property = "inhibition"
experimental_value = 12.8

[[record]]
molecule = "CCN(CC)CCCCC1CCN(CC(=O)N2c3ccccc3C(=O)Nc3cccnc32)CC1"
observed_property = "inhibition"
experimental_value = -7.42

[[record]]
molecule = "C[C@]1(C(=O)N(CCCC(=O)O)Cc2cccc(Cl)c2)CCN1C(=O)c1csc2ccccc12"
observed_property = "inhibition"
experimental_value = 3.68

[[record]]
molecule = "CC(C)NCC(O)COc1cccc2[nH]ccc12 (stereo not drawn)"
observed_property = "inhibition"
experimental_value = 4.75

[[record]]
molecule = "c1nc(CC2CCNCC2)c[nH]1"
observed_property = "inhibition"
experimental_value = 18.8

[[record]]
molecule = "CCOC(=O)c1c(C)[nH]c2ccc3c(c12)CN1CCc2cc(OC)ccc2C1O3 (stereo not drawn)"
observed_property = "inhibition"
experimental_value = 10.8

[[record]]
molecule = "Cc1ccccc1C(=O)Nc1ccc(C(=O)N2CCCC(O)c3cc(Cl)ccc32)c(C)c1 (stereo not drawn)"
observed_property = "inhibition"
experimental_value = 1.21

[[record]]
molecule = "N#Cc1cccc(C(=O)Nc2cc(-c3ccccc3)nn2-c2ccccc2)c1"
observed_property = "inhibition"
experimental_value = 6.69

[[record]]
molecule = "COc1ccc(C2(O)OC(=O)C(c3ccc4c(c3)OCO4)=C2Cc2cc(OC)c(OC)c(OC)c2)cc1 (stereo not drawn)"
observed_property = "inhibition"
experimental_value = -2.9

[[record]]
molecule = "CCCCN1CCC(COC(=O)c2cc(Cl)c(N)c3c2OCCO3)CC1"
observed_property = "inhibition"
experimental_value = 20.1

[[record]]
molecule = "CN1C[C@H](C(=O)N[C@]2(C)O[C@@]3(O)[C@@H]4CCCN4C(=O)[C@H](Cc4ccccc4)N3C2=O)C[C@@H]2c3cccc4[nH]cc(c34)C[C@H]21"
observed_property = "inhibition"
experimental_value = 97.4

[[record]]
molecule = "Cc1c(P(=S)(c2ccccc2)c2ccccc2)n2ccccc2[n+]1C/C=C/c1ccccc1"
observed_property = "inhibition"
experimental_value = 43.6

[[record]]
molecule = "COc1ccc(NS(=O)(=O)c2sc3ccc(Cl)cc3c2C)cc1N1CCNCC1"
observed_property = "inhibition"
experimental_value = 87.3

[[record]]
molecule = "CN1CCCC(n2nc(Cc3ccc(Cl)cc3)c3ccccc3c2=O)CC1 (stereo not drawn)"
observed_property = "inhibition"
experimental_value = 74.7

[[record]]
molecule = "O=S1(=O)c2cccc3cccc(c23)N1CCCN1CCN(c2ccc(F)cc2)CC1"
observed_property = "inhibition"
experimental_value = 52.9

[[record]]
molecule = "CCCCCCCCCCCCC/C=C/[C@@H](O)[C@@H](N)COP(=O)(O)O"
observed_property = "inhibition"
experimental_value = 3.57

[[record]]
molecule = "C[C@H](CO)Nc1nc(SCc2cccc(Cl)c2F)nc2[nH]c(=O)sc12"
observed_property = "inhibition"
experimental_value = -7.23

[[record]]
molecule = "Cc1nc(-c2ccc(C(F)(F)F)cc2)sc1COc1ccc([C@H](CC(=O)O)c2ccon2)cc1"
observed_property = "inhibition"
experimental_value = 20.3

[[record]]
molecule = "COc1ccc(OC(F)(F)F)cc1CN[C@H]1CCCN[C@H]1c1ccccc1"
observed_property = "inhibition"
experimental_value = 23.8

[[record]]
molecule = "O=C(O)CC/C=C\\C[C@@H]1CO[C@H](c2ccccc2Cl)O[C@@H]1c1ccccc1O"
observed_property = "inhibition"
experimental_value = -3.05

[[record]]
molecule = "C[N+]1(C)[C@@H]2C[C@@H](OC(=O)C(O)(c3cccs3)c3cccs3)C[C@H]1[C@@H]1O[C@@H]12"
observed_property = "inhibition"
experimental_value = -5.82

[[record]]
molecule = "Cc1cc(C)c(N)c(C#Cc2cccc(F)c2)n1"
observed_property = "inhibition"
experimental_value = 16.2

